Every entry's value here was drawn from patent US20150004189A1.

ASSAY_SYSTEM: HLA DQ molecule DQB1*0602 (human)
TEST_DESCRIPTION: inhibition of radiolabeled peptide binding to purified HLA class II
Lab note - cut at 10 µM for IC50: met if strictly below, not met if not.

- BINDER: "MRNVFDDVVPADFKV [Lol p 2 peptide, position 76, MRNVFDDVVPADFKV (Peptide ID 3337.0030)]"
  ANSWER_LABEL: "not met"
- BINDER: "IKSDKPLKGPFNFRF [Lol p 2 peptide, position 56, IKSDKPLKGPFNFRF (Peptide ID 3324.1140)]"
  ANSWER_LABEL: "not met"
- BINDER: "LWEVKSAKPLTGPMN [Lol p 3 peptide, position 51, LWEVKSAKPLTGPMN (Peptide ID 3337.0031)]"
  ANSWER_LABEL: "met"
- BINDER: "GAYETYKFIPSLEAA [Pha a 5 peptide, position 201, GAYETYKFIPSLEAA (Peptide ID 3324.1433)]"
  ANSWER_LABEL: "met"
- BINDER: "PAAAYATATPAAATA [Lol p 5 1 peptide, position 306, PAAAYATATPAAATA (Peptide ID 3324.1184)]"
  ANSWER_LABEL: "met"
- BINDER: "DGVWEIKSDKPLKGP [Lol p 2 peptide, position 51, DGVWEIKSDKPLKGP (Peptide ID 3324.1139)]"
  ANSWER_LABEL: "not met"
- BINDER: "IAFFRKEPLKECGGI [Lol p 11 peptide, position 116, IAFFRKEPLKECGGI (Peptide ID 3337.0029)]"
  ANSWER_LABEL: "not met"
